# experimentNotes: In vitro metabolism in human liver microsomes (STS and CYP)
# Assay type: in vitro ADME
# experimentalConditions: human, liver microsomes, pH 7.4, + NADPH (STS and CYP active), 5 μM

molecule	half-life at 5 μM, min
CC/C(=C(/CC)c1ccc(O)cc1)c1ccc(O)cc1 [DES, diethylstilbestrol, reference compound]	18

---

# experimentNotes: In vitro metabolism in human liver microsomes (STS and CYP)
# Type: in vitro ADME
# experimentalConditions: human, liver microsomes, pH 7.4, nothing added (STS active, CYP inactive), 5 μM
# Experimental: In vitro metabolism pathways of DES, Mono-Sulfestrol and Di-Sulfestrol in human liver microsomes were investigated. Special emphasis was put on desulfatation by steroid sulfatase (STS) and oxidation by cytochrome P (CYP) metabolism. Liver microsomes (Celsis in vitro Technologies) were used at a concentration of 0.5 mg/ml in a volume of 600 μl phosphate buffer pH 7.4. Estrone-3-sulfate was used as positive control. […]
quantityName: half-life at 5 μM (h)

compound	quantityName	measValue
CC/C(=C(/CC)c1ccc(O)cc1)c1ccc(O)cc1 [DES, diethylstilbestrol, reference compound]	half-life at 5 μM	3.23
